# System: HOP-92 NSCLC
# method: NCI-60 one-dose screen, 48 h
# settings: 10 µM unless noted
About 83,000 compounds went through this panel and 20% of them were active in at least one assay; those are over-represented in the sample as a whole. Active and inactive are the calls of the source. Rule for the calls: active = growth percent below 10; inactive = the rest.
Permitted responses: TRUE = active, FALSE = inactive

Record request — test call for O=C(/C=C/c1ccco1)Nc1ncc(Cc2cccc(C(F)(F)F)c2)s1
FALSE

How was Cc1cc(S(=O)(=O)/N=C(\N)n2nc(C)c(C)c2C)c(SCc2ccccc2)cc1Cl classified in this test?
FALSE

How was CC(C)(Sc1cc(C(C)(C)C)c(O)c(C(C)(C)C)c1)Sc1cc(C(C)(C)C)c(OC(=O)CCCC(=O)O)c(C(C)(C)C)c1 classified in this test?
FALSE

---
Assay result, entry CC(O)(c1ccccc1)C(c1ccccc1)C1CCCCN1 (stereo not given) — outcome?
FALSE

Which result was noted for this molecule in the test: NC(=O)CSc1oc(-c2ccccc2)nc1S(=O)(=O)c1ccc(Br)cc1
TRUE

----------
# Tested on: LOX IMVI melanoma
# method: NCI-60 one-dose screen, 48 h (100 = growth as untreated, 0 = no growth, -100 = all killed)
# settings: 10 µM unless noted
About 83,000 compounds went through this panel and 20% of them were active in at least one assay; those are over-represented in the sample as a whole.
Rule: growth below 50% gives rule met, anything at or above gives rule not met.

Some solved entries appear below for comparison.
Quick check: growth of O=C1NC2(Nc3ccccc31)C(=O)Nc1c(Cl)cc(Cl)cc12 (stereo not drawn) under 50%?
rule not met

Threshold test, growth < 50%: COc1cc(-c2nc3sccn3c2-c2ccnc(NCCNS(=O)(=O)c3ccccc3)n2)ccc1F
rule met

---
Item COc1cc2cc(NCc3cccc(Cl)c3)nc(C)c2cc1OC : growth beneath 50%, strictly?
rule met

A record lists CCN(CC)S(=O)(=O)c1ccc(S(=O)(=O)N2CCC[C@@H](C(=O)N3CCN(c4nc(C(C)C)no4)CC3)C2)cc1 . Is its growth below 50%?
rule not met

# strict comparison: is reported growth < 50%? input = C=C(C)[C@@H]1CC[C@]2(C(=O)O)CC[C@]3(C)[C@H](CC[C@@H]4[C@@]5(C)CCC(NC(=O)c6cccc(OC(C)=O)c6OC(C)=O)C(C)(C)[C@@H]5CC[C@]43C)[C@@H]12 (stereo partly drawn)
rule met

growth strictly < 50% for this compound? O=C(CSc1nc2sc3c(c2c(=O)n1-c1ccccc1)CCCCC3)N/N=C/c1cccc([N+](=O)[O-])c1
rule not met

Please indicate whether the reported growth of C=C(C)[C@@H]1CC[C@]2(CO)CC[C@]3(C)[C@H](CC[C@@H]4[C@@]5(C)CC[C@H](NCO)C(C)(C)[C@@H]5CC[C@]43C)[C@@H]12 is strictly below 50%.
rule met

Criterion: growth strictly below 50%. Is it met by CCN(CC)CC(O)COc1c(Br)c(Br)c(Br)c2c1OC(C)(C)C2 (stereo not drawn) ?
rule not met

----------
# System: HT29 colon
# method: NCI-60 one-dose screen, 48 h (100 = growth as untreated, 0 = no growth, -100 = all killed)
# settings: 10 µM unless noted
This is part of a sample that, as a whole, favours compounds with a hit. Of some 83,000 tested, about 20% had one in any assay.
reported metric: growth (%)
Please give a number only; it is taken to be in %.

Solved cases below.
I have this compound here, C=CCn1c(C)nc2ccc(Nc3nc(Nc4ccc5nc(C)n(CC=C)c5c4)c4ccccc4n3)cc21 , and I need its recorded growth.
-96.7

I have this compound here, CCOC(=O)c1c(NC(=O)c2cccc(C(F)(F)F)c2)sc2c(CN(C)C)c(O)ccc12 , and I need its recorded growth.
13.5

Returns the measured growth for the input compound. Input: CCOC(=O)[C@@H]1CSC(CC)=C(C(=O)O)N1
111

What measured growth goes with CC/C(=C(/c1ccc(Cl)cc1)c1ccc(OCCN(C)C)cc1)c1ccc(Cl)cc1 ?
22.4

Can you share its growth? I mean this compound: CSc1nc2ccccc2cc1/C=C1/C=C(c2ccccc2)NC1=O
38.9

Which growth is listed for C=C(C)[C@@H]1CC[C@]2(C(=O)N3CCOCC3)CC[C@]3(C)[C@H](CC[C@@H]4[C@@]5(C)C/C(=C/c6ccncc6)C(=O)C(C)(C)[C@@H]5CC[C@]43C)[C@@H]12 ?
33.8

Recorded growth for Nc1nc2ccccc2c2c1S(=O)(=O)c1ccc(Cl)cc1C2=O , please?
7.01

Consider the compound N#CC1=C(N)Oc2c(ccc3ccccc23)C1c1ccccc1 (centres undefined) and give its measured growth.
-2.07

Proceeding to the next compound to report its growth.
Reported growth, compound CCC(=O)Oc1ccc(-c2ccccc2)cc1Br : ____
101

----------
# System: NCI-H23 lung
# method: NCI-60 one-dose screen, 48 h
# settings: 10 µM unless noted
About 83,000 compounds went through this panel and 20% of them were active in at least one assay; those are over-represented in the sample as a whole. The source made the active and inactive calls. How the source made its calls: active means growth percent below 10; inactive means the rest.
Log the outcome using a class from active, inactive

Below, 2 molecules whose answers are already recorded.
Record lookup: outcome of this test for N#CC1=C(c2ccccc2)Nc2c(c(-c3ccc(Cl)cc3)nn2-c2ccccc2)C12C(=O)Nc1ccc(Cl)cc12 (stereo not drawn) ?
inactive

# lookup: test call for O=C1/C(=C/c2ccccc2Br)COc2ccc(O)cc21
inactive

***
Short answer needed: outcome of this test for Fc1cnccc1C1CC(c2ccc(N3CCNCC3)cc2)=NN1 (stereo not drawn) ?
inactive

Returns: the outcome recorded for O=CN1N=C(c2cccc(Nc3ccnc4cc(Cl)ccc34)c2)CC1c1ccccc1 (stereo not drawn) in this assay.
active

Which outcome was entered for the molecule COc1cc(OC)c(NC(=O)c2cc3ccccc3cc2O)cc1Cl in this test?
inactive

----------
# Test system: NCI-H460 lung
# method: NCI-60 one-dose screen, 48 h (100 = growth as untreated, 0 = no growth, -100 = all killed)
# settings: 10 µM unless noted
The panel holds about 83,000 compounds, 20% with a hit somewhere; the sample as a whole holds those more often.
# growth per record follows
Dear colleague, please return just the value in %, with no unit written.

Study these solved cases before continuing.
Which growth reading was recorded for the compound CCNCCNc1cc(C2CCCCC2)c(C#N)c2nc3ccccc3n12 ?
-23.4

# growth lookup, item Nc1[nH]n2cc(-c3ccccc3)nc2c1N=Nc1ccc(S(N)(=O)=O)cc1
20.1

Look up growth for this compound: COC12C=C/C(=C(/C(=O)OCc3ccncc3)C(=O)CCCCCCCCC3(OC)C=C/C(=C(/C(=O)OCc4ccncc4)C(=O)CCCCCCCC1)O3)O2
1.88

***
For COc1ccc(C(=O)Nc2cccc(-c3cc(=O)c4c(OC)c(OC)c(OC)cc4o3)c2)cc1 , what is its reported growth?
42.1

Suppose we examine the compound CCN(CC)c1ccc(\C=N/N=C(N)/C(N)=N\N=C/c2ccc(N(CC)CC)cc2)cc1 ; what growth value has been reported?
109

----------
Entries and their measured growth follow.
# Tested on: CAKI-1 renal
# method: NCI-60 one-dose screen, 48 h (100 = growth as untreated, 0 = no growth, -100 = all killed)
# settings: 10 µM unless noted
This is part of a sample that, as a whole, favours compounds with a hit. Of some 83,000 tested, about 20% had one in any assay.
# number only, unit % dropped from output

In the examples that follow, each entry is paired with its recorded growth.
Could you share which growth value was measured for Nc1nc2ccc(-c3nc4ccc5[nH]ncc5c4c4c3CCCC4)cc2s1 ?
99.7

Would you kindly share the measured growth for CCN(CC)S(=O)(=O)c1ccc(S(=O)(=O)N2CCC[C@@H](C(=O)N3CCN(c4nc(C(C)C)no4)CC3)C2)cc1 ?
58.4

// returns reported growth for input C=C1C(=O)O[C@H]2[C@H]1CC/C(COC(=O)/C=C\C(=O)NCc1ccc(Cn3c(=O)sn(CCI)c3=O)cc1)=C\CC[C@@]1(C)O[C@@H]21
25.7

Look at this molecule and give its reported growth. COc1ccc2cc1Oc1ccc(cc1)C[C@H]1c3c(cc4c(c3Oc3cc5c(cc3OC)CCN(C)[C@@H]5C2)OCO4)CCN1C
70.8

Which growth is reported for this molecule? COc1c(B(O)O)cccc1-c1cc(C)c2c(ccc3[nH]ncc32)n1
-17.9

***
Could you tell me which growth is on file for C=CCn1c(C)nc2ccc(Nc3nc(Nc4ccc5nc(C)n(CC=C)c5c4)c4ccccc4n3)cc21 ?
-24.1

May I ask what growth has been recorded for COc1ccc(C(=O)/C=C/c2c(C(F)(F)F)nc3ccccn23)cc1OC ?
-5.18

Field request: growth | item: CCSC(SCC)c1ccc(Cl)cc1
82.9

Which measured growth value corresponds to O=C1C(=O)N(Cc2ccc(-c3ccccc3)cc2)c2ccc(OC(F)(F)F)cc21 ?
31.7
